Biological target: T1, VEGF (human, UniProt P15692)
T1 chain: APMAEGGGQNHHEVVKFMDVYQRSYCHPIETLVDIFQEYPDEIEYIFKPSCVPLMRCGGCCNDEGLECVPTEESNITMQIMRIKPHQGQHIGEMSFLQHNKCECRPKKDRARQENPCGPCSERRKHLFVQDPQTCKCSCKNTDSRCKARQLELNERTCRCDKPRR
Assay: ELISA
The entries below come with measured pEC50 values attached.
Keep it numeric: pEC50 is minus log10 of the concentration in mol/L.

Completed entries (count: 3):
{"binder": "DVD486 VEGF arm (antibody, V domains shown) VH: EVQLVESGGGLVQPGGSLRLSCAASGFTINASWIHWVRQAPGKGLEWVGAIYPYSGYTNYADSVKGRFTISADTSKNTAYLQMNSLRAEDTAVYYCARWGHSTSPWAMDYWGQGTLVTVSS VL: DIQMTQSPSSLSASVGDRVTITCRASQVIRRSLAWYQQKPGKAPKLLIYAASNLASGVPSRFSGSGSGTDFTLTISSLQPEDFATYYCQQSNTSPLTFGQGTKVEIKR", "quantitative_result": 7.55}
{"binder": "DVD534 VEGF arm (antibody, V domains shown) VH: EVQLVESGGGLVQPGGSLRLSCAASGFTINASWIHWVRQAPGKGLEWVGAIYPYSGYTNYADSVKGRFTISADTSKNTAYLQMNSLRAEDTAVYYCARWGHSTSPWAMDYWGQGTLVTVSS VL: DIQMTQSPSSLSASVGDRVTITCRASQVIRRSLAWYQQKPGKAPKLLIYAASNLASGVPSRFSGSGSGTDFTLTISSLQPEDFATYYCQQSNTSPLTFGQGTKVEIKR", "quantitative_result": 7.63}
{"binder": "DVD527 VEGF arm (antibody, V domains shown) VH: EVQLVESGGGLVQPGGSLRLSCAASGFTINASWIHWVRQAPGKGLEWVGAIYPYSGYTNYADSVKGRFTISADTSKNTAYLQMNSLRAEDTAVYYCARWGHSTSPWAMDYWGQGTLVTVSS VL: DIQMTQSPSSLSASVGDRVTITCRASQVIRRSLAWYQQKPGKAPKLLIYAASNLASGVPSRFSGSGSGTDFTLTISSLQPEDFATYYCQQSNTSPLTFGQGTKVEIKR", "quantitative_result": 5.62}

Record DVD533 VEGF arm (antibody, V domains shown) VH: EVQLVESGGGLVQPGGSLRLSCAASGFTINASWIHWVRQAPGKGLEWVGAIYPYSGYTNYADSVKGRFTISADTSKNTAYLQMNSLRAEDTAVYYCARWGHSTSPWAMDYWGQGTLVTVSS VL: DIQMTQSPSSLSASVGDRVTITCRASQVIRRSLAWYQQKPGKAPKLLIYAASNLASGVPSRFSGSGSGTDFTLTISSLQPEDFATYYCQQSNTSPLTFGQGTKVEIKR . Reported pEC50: 5.90
